- testedTarget: T1, scHLA-B27-mmH (engineered HLA-B*27 ectodomain in-line fusion protein) (human (HLA-B*2705, beta-2 …))
- T1 construct: also called soluble HLA-B*27 fusion protein
- test: SPR (Biacore), mAb captured, 37 C, HBST pH 7.4
outcomeMeasure: log10 of t1/2 (log10 of the value in min)
A value of 2 here means t1/2 of 100 in min, since values are log10.

binder | log10 of t1/2
H4H2538P (antibody, V domains shown) VH: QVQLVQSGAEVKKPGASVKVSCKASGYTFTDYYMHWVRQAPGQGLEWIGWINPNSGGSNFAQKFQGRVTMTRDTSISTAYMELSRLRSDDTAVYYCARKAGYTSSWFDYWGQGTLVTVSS VL: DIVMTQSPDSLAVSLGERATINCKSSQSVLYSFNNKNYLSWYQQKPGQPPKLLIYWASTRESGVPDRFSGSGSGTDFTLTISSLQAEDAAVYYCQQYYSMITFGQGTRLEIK | 0.90

## Input Fill in the blank: the reported log10 of t1/2 of H4H2534S (antibody, V domains shown) VH: EVQLVESGPGLVKPAQTLSLTCTVSGGSINSGGNYWSWIRQHPGKGLEWIGYIYYSGNTYYNPSLKSRVTISVDMSKNQFSLKLRSVTAADTAVYFCARDPRGITGTHHFDCWGQGTLVTVSS VL: EIVLTQSPGTLSLSPGERATLSCRTSQSVSSRYLAWYQQKPGQAPRLLIYDASSRATGIPDRFSGSGSGTDFTLTISRLEPEDFAVYYCQQFGPSLFTFGPGTKVDIK is ____.
## Output 0.48

## Input Which log10 of t1/2 is reported for this binder? H4H2718N (antibody, V domains shown) VH: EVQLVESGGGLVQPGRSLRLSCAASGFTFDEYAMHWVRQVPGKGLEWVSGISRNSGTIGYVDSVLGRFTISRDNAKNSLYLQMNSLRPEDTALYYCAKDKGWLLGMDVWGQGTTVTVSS VL: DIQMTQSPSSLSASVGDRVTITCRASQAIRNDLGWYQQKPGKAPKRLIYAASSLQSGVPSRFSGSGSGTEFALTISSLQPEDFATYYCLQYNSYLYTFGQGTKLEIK
## Output 0.48

## Input Sample H4H2499N (antibody, V domains shown) VH: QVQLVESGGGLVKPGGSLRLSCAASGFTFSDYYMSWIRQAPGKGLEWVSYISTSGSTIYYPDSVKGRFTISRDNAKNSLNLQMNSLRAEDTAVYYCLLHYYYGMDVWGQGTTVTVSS VL: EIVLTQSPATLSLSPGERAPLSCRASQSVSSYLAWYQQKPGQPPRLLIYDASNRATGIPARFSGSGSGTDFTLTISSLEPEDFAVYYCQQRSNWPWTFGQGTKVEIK — what was its log10 of t1/2?
## Output 0.60

Every entry's value here was drawn from patent US20130259876A1.
